TARGET ENTITY: urease enzyme (Canavalia ensiformis)
Sequence (P07374 whole entry, looked up): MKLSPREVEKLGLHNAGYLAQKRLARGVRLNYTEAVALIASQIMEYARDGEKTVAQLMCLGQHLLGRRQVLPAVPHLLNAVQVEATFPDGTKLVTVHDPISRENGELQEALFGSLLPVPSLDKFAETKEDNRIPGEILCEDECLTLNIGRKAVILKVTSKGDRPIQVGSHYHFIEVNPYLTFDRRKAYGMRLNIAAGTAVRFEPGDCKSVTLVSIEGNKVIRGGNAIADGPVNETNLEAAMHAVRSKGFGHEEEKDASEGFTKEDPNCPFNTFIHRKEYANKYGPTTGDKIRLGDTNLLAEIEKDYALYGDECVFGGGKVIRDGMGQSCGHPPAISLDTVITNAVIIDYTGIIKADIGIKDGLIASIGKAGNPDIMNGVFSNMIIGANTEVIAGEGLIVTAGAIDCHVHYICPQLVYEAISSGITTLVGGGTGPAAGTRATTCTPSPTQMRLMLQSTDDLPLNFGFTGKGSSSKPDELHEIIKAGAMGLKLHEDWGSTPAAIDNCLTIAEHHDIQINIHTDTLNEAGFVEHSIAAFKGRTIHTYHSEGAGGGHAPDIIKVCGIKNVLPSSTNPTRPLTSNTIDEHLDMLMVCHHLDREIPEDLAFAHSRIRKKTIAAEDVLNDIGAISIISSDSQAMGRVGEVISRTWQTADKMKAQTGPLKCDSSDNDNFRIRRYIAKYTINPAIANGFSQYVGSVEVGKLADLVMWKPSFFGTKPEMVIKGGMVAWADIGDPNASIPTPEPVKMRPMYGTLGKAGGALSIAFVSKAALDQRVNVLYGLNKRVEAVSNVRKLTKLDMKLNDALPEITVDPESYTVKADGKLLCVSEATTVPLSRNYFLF
Assay type: biochemical
MEASUREMENT PARAMETERS: read-out: IC50 values (urease inhibition); indophenol method, pH 6.8, 30 °C, 15 min incubation, triplicate; thiourea as standard
pIC50: −log10 of the molar value.

{"COMPOUND": "O=C(NN1C(=O)SCC1c1ccc(Cl)cc1Cl)c1cc2c(F)cc([N+](=O)[O-])cc2o1 (stereo not shown) [Compound 8]", "pIC50": 5.54}
